# Protocol Text: Selectivity ratio, ratio of IC50 for human Jurkat cells to IC50 for Leishmania infantum MCAN/ES/89/IPZ229/1/89 amastigotes
# Assay type: ADME, cell-based
# Assay Conditions: read-out: Ratio IC50
Classification field: Condition met = selectivity ratio at or over 20; Condition not met = selectivity ratio under 20.

Compound	Label Class
CN(C)c1ccc([Se]C#N)cc1	Condition not met
N#C[Se]Cc1ccccc1[N+](=O)[O-]	Condition met
N#C[Se]Cc1ccccc1 [BENZYLSELENOCYANATE]	Condition not met
c1ccc(C[Se][Se]Cc2ccccc2)cc1 [BISBENZYLDISELENIDE]	Condition met
N#C[Se]Cc1ccc(C#N)cc1	Condition met
N#C[Se]Cc1ccc(Br)cc1	Condition not met
Nc1ccc([Se][Se]c2ccc(N)cc2)cc1	Condition met
CN(C)c1ccc([Se][Se]c2ccc(N(C)C)cc2)cc1	Condition met
N#C[Se]Cc1ccc2ccccc2c1	Condition not met
N#C[Se]Cc1ccc(C(F)(F)F)cc1	Condition not met

* * *

# System: Leishmania infantum
# Protocol Text: Antileishmanial activity against Leishmania infantum MCAN/ES/89/IPZ229/1/89 promastigotes after 24 hrs […]
# Type: functional, organism-based
# Assay Conditions: MCAN/ES/89/IPZ229/1/89, 24 h
pIC50: −log10 of the molar value.
Reported Endpoint: pIC50

Compound	Reported Measurement
N#C[Se]Cc1cccc([N+](=O)[O-])c1	5.38
N#C[Se]Cc1ccc2ccccc2c1	4.95
N#C[Se]Cc1ccc(C(F)(F)F)cc1	4.95
Cc1ccc(C[Se]C#N)cc1	4.93
N#C[Se]Cc1ccccc1[N+](=O)[O-]	5.48
N#C[Se]Cc1cccc(C#N)c1	5.22
N#C[Se]c1ccc(N)cc1	4.95
Nc1ccc([Se][Se]c2ccc(N)cc2)cc1	6.02
N#C[Se]Cc1ccccc1 [BENZYLSELENOCYANATE]	5.10
N#C[Se]Cc1ccc(Br)cc1	4.94
N#C[Se]Cc1ccccc1C#N	5.11
O=[N+]([O-])c1ccccc1C[Se][Se]Cc1ccccc1[N+](=O)[O-]	4.90
CCCCCCCCCCCCCCCCOP(=O)([O-])OCC[N+](C)(C)C	4.82

* * *

# System: Jurkat
# Protocol Text: Cytotoxicity against human Jurkat cells assessed as live cells in neubauer chamber after 24 hrs by trypan blue assay
# Type: cell-based
Reported Endpoint: log10 IC50 (log10 of the value in µM)

Compound	Tgt	log10 IC50
N#C[Se]Cc1cccc([N+](=O)[O-])c1	Jurkat	1.09
N#C[Se]Cc1ccc([N+](=O)[O-])cc1	Jurkat	0.84
N#C[Se]Cc1ccccc1[N+](=O)[O-]	Jurkat	1.11
c1ccc(C[Se][Se]Cc2ccccc2)cc1 [BISBENZYLDISELENIDE]	Jurkat	1.42
CCCCCCCCCCCCCCCCOP(=O)([O-])OCC[N+](C)(C)C	Jurkat	1.52
N#C[Se]Cc1ccc(C#N)cc1	Jurkat	1.13
N#C[Se]Cc1cccc(C#N)c1	Jurkat	0.94
N#C[Se]Cc1ccc2ccccc2c1	Jurkat	1.15
CSc1ccc(C[Se]C#N)cc1	Jurkat	0.71
N#C[Se]c1ccc(N)cc1	Jurkat	1.64
O=[N+]([O-])c1ccccc1C[Se][Se]Cc1ccccc1[N+](=O)[O-]	Jurkat	0.42
N#C[Se]Cc1ccccc1C#N	Jurkat	1.23
N#C[Se]CCc1ccc([N+](=O)[O-])cc1	Jurkat	0.38

* * *

# Protocol Text: Selectivity ratio, ratio of IC50 for human THP1 cells to IC50 for Leishmania infantum MCAN/ES/89/IPZ229/1/89 amastigotes
# Assay type: ADME, cell-based
# Assay Conditions: THP-1 cells, read-out: Ratio IC50

Compound	selectivity ratio
O=[N+]([O-])c1ccc(C[Se][Se]Cc2ccc([N+](=O)[O-])cc2)cc1	77
CCCCCCCCCCCCCCCCOP(=O)([O-])OCC[N+](C)(C)C [MILTEFOSINE]	7
CSc1ccc(C[Se]C#N)cc1	6
N#C[Se]Cc1ccc2ccccc2c1	5
N#C[Se]Cc1ccc([N+](=O)[O-])cc1	25
N#C[Se]Cc1ccc(C(F)(F)F)cc1	9

* * *

# GI per entry
# Test system: Leishmania infantum
# Protocol Text: Antileishmanial activity against Leishmania infantum MCAN/ES/89/IPZ229/1/89 promastigotes assessed as growth inhibition at 6.25 uM after 24 hrs
# Type: functional
Reported Endpoint: GI (%)

Molecule	Reported Measurement
N#C[Se]Cc1ccc([N+](=O)[O-])cc1	82.3
CN(C)c1ccc([Se]C#N)cc1	54.4
CN(C)c1ccc([Se][Se]c2ccc(N(C)C)cc2)cc1	51.5
N#C[Se]Cc1cccc(C#N)c1	42.2
N#C[Se]c1ccc(N)cc1	14.4
COc1ccc(C[Se][Se]Cc2ccc(OC)cc2)cc1	0.5
c1ccc(C[Se][Se]Cc2ccccc2)cc1 [BISBENZYLDISELENIDE]	33.2
N#C[Se]Cc1ccccc1C#N	31.4
O=[N+]([O-])c1ccc(C[Se][Se]Cc2ccc([N+](=O)[O-])cc2)cc1	81.8
FC(F)(F)c1ccc(C[Se][Se]Cc2ccc(C(F)(F)F)cc2)cc1	11
N#C[Se]Cc1ccccc1 [BENZYLSELENOCYANATE]	46.5
Cc1ccc(C[Se]C#N)cc1	52.8
O=[N+]([O-])c1ccccc1C[Se][Se]Cc1ccccc1[N+](=O)[O-]	50
O=[N+]([O-])c1cccc(C[Se][Se]Cc2cccc([N+](=O)[O-])c2)c1	18.1

* * *

# Tested on: Leishmania infantum
# Protocol Text: Antileishmanial activity against Leishmania infantum MCAN/ES/89/IPZ229/1/89 promastigotes after 24 hrs […]
# Type: functional, organism-based
# Assay Conditions: MCAN/ES/89/IPZ229/1/89, 24 h
Reported values of IC50 for individual entries

Compound	Tgt	IC50, µM
CCCCCCCCCCCCCCCCCCOCC(COP(=O)([O-])OCC[N+](C)(C)C)OC (stereo unspecified)	Leishmania infantum	3.65
CN(C)c1ccc([Se]C#N)cc1	Leishmania infantum	9.24
N#C[Se]Cc1ccc([N+](=O)[O-])cc1	Leishmania infantum	4.3
N#C[Se]Cc1ccc(C#N)cc1	Leishmania infantum	4.14
N#C[Se]CCc1ccc([N+](=O)[O-])cc1	Leishmania infantum	11.9
CSc1ccc(C[Se]C#N)cc1	Leishmania infantum	11.6

* * *

# Test system: Leishmania infantum
# Protocol Text: Antileishmanial activity against Leishmania infantum MCAN/ES/89/IPZ229/1/89 promastigotes assessed as growth inhibition at 12.5 uM after 24 hrs
# Assay type: functional
Please use Fulfilled whenever GI is not below 80%, and Not fulfilled whenever it is.

Smiles Code	Tgt	Label Class
COc1ccc(C[Se][Se]Cc2ccc(OC)cc2)cc1	Leishmania infantum	Not fulfilled
CN(C)c1ccc([Se][Se]c2ccc(N(C)C)cc2)cc1	Leishmania infantum	Not fulfilled
N#Cc1ccc(C[Se][Se]Cc2ccc(C#N)cc2)cc1	Leishmania infantum	Not fulfilled
N#C[Se]Cc1ccc([N+](=O)[O-])cc1	Leishmania infantum	Fulfilled

* * *

# Tested on: Leishmania infantum
# Protocol Text: Antileishmanial activity against Leishmania infantum MCAN/ES/89/IPZ229/1/89 promastigotes assessed as growth inhibition at 25 uM after 24 hrs
# Format: functional
Form field: GI (one value per entry).
Reported Endpoint: GI (%)

Compound	Unit String	Reported Measurement
FC(F)(F)c1ccc(C[Se][Se]Cc2ccc(C(F)(F)F)cc2)cc1	%	12.2
N#C[Se]Cc1ccccc1[N+](=O)[O-]	%	98.6
O=[N+]([O-])c1ccccc1C[Se][Se]Cc1ccccc1[N+](=O)[O-]	%	77.2
N#C[Se]Cc1ccccc1C#N	%	90.2
N#C[Se]Cc1ccc(C#N)cc1	%	97
CN(C)c1ccc([Se]C#N)cc1	%	97.3
CN(C)c1ccc([Se][Se]c2ccc(N(C)C)cc2)cc1	%	77.6
N#C[Se]Cc1ccc([N+](=O)[O-])cc1	%	98
N#Cc1cccc(C[Se][Se]Cc2cccc(C#N)c2)c1	%	44.3
O=[N+]([O-])c1ccc(C[Se][Se]Cc2ccc([N+](=O)[O-])cc2)cc1	%	98.7
N#C[Se]Cc1cccc(C#N)c1	%	93
c1ccc(C[Se][Se]Cc2ccccc2)cc1 [BISBENZYLDISELENIDE]	%	60.4
N#C[Se]Cc1cccc([N+](=O)[O-])c1	%	97
N#C[Se]Cc1ccc(Br)cc1	%	97.1
N#C[Se]CCc1ccc([N+](=O)[O-])cc1	%	88.9
N#C[Se]Cc1ccc(C(F)(F)F)cc1	%	98.8
N#Cc1ccccc1C[Se][Se]Cc1ccccc1C#N	%	31.5
N#C[Se]Cc1ccc2ccccc2c1	%	91.5
CSc1ccc(C[Se][Se]Cc2ccc(SC)cc2)cc1	%	17.5
Cc1ccc(C[Se]C#N)cc1	%	98.6
Brc1ccc(C[Se][Se]Cc2ccc(Br)cc2)cc1	%	12.2
N#C[Se]Cc1ccccc1 [BENZYLSELENOCYANATE]	%	99.4
COc1ccc(C[Se][Se]Cc2ccc(OC)cc2)cc1	%	31.7
O=[N+]([O-])c1cccc(C[Se][Se]Cc2cccc([N+](=O)[O-])c2)c1	%	41.2
Cc1ccc(C[Se][Se]Cc2ccc(C)cc2)cc1	%	2.5
N#C[Se]c1ccc(N)cc1	%	76.3
Nc1ccc([Se][Se]c2ccc(N)cc2)cc1	%	98
